Biological target: native serotonin 5-HT1A receptors (Rattus norvegicus, UniProt P19327)
Construct: from tissue; host or cells: rat hippocampus membranes
Sequence (P19327 whole entry): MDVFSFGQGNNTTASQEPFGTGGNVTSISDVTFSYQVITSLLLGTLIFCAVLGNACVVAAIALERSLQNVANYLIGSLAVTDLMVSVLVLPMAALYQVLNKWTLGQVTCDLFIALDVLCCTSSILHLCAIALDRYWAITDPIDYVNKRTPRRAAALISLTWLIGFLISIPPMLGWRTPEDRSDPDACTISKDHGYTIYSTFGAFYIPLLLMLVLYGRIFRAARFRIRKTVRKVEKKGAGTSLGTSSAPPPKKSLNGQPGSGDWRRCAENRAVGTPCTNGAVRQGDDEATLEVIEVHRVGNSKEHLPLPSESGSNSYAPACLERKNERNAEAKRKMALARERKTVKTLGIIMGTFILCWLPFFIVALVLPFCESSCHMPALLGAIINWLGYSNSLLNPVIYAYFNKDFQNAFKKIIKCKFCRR
Test: Radioligand binding, [3H]-8-OH-DPAT, rat hippocampal membranes; further: SEM ≤ 22%
Details: read-out: Ki 5-HT1A
readout: potency estimated from few doses

compound | readout | result
O=C(N[C@H]1CC(=O)N(CCCCN2CCN(c3cccc(C(F)(F)F)c3)CC2)C1=O)C1CCCCC1 | potency estimated from few doses | 19 nM
O=C(N[C@H]1CC(=O)N(CCCCN2CCN(c3cccc(C(F)(F)F)c3)CC2)C1=O)C1CCCC1 | potency estimated from few doses | 24 nM
O=C1C[C@H](NC(=O)C23CC4CC(CC(C4)C2)C3)C(=O)N1CCCCN1CCN(c2cccc(C(F)(F)F)c2)CC1 | potency estimated from few doses | 21 nM
O=C1CC2(CCCC2)CC(=O)N1CCCCN1CCN(c2ncccn2)CC1 [buspirone, reference compound] | potency estimated from few doses | 36 nM
O=C(NCCCCN1CCN(c2cccc(C(F)(F)F)c2)CC1)[C@@H]1CCCN1C(=O)C12CC3CC(CC(C3)C1)C2 | potency estimated from few doses | 8 nM

* * *

Biological target: native serotonin 5-HT1A receptors (Rattus norvegicus, UniProt P19327)
Construct: from tissue; host or cells: rat hippocampus membranes
Test: Radioligand binding, [3H]-8-OH-DPAT, rat hippocampal membranes; further: SEM ≤ 22%
Conditions: read-out: Ki 5-HT1A
Recorded potency estimated from few doses, one value per entry.
readout: potency estimated from few doses (nM)

smiles.record | numeric.readout
O=C(NCCCN1CCN(c2cccc(C(F)(F)F)c2)CC1)[C@@H]1CCCN1C(=O)C12CC3CC(CC(C3)C1)C2 | 42
CC(=O)N[C@H]1CC(=O)N(CCCN2CCN(c3cccc(C(F)(F)F)c3)CC2)C1=O | 129
O=C(N[C@H]1CC(=O)N(CCCN2CCN(c3cccc(C(F)(F)F)c3)CC2)C1=O)C1CCCCC1 | 170
O=C(NCCCCN1CCN(c2cccc(C(F)(F)F)c2)CC1)[C@@H]1CCCN1C(=O)C1CCCC1 | 26
